target: Palivizumab; test: SPR; Palivizumab (about 1000 RU) or P^scFvFc variants (about 500 RU) captured on a Protein A chip, AIP^VHH as analyte; Biacore X100, 25 °C, PBS pH 7.4 with 0.05% P20, 30 μl/min, 120 s injection, 500 s dissociation, 1:1 binding model
Sequence (heavy, as listed by the source, chain 1 of 2): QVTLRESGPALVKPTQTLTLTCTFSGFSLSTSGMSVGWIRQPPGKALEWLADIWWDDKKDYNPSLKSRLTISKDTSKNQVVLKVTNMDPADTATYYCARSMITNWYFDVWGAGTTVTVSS
Sequence (light, as listed by the source, chain 2 of 2): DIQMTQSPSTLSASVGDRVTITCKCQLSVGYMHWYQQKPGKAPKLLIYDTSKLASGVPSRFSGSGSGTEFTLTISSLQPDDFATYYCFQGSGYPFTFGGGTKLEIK
property-name: Kd

Take a look at these entries with their results.
anti-idiotypic nanobody for Palivizumab 4 (AIP4^VHH), soluble (VHH) VHH: DVQLQESGGGLVQAGGSLRLSCVASGRAFSRYDMGWFRQAPGKEREFVAQISWRGGSATSYADTVKGRFTIARDNAKNTVYLQMNSLKPEDTAVYYCNARTPTLSSWGQGTQVTVSS = 3.14 nM
anti-idiotypic nanobody for Palivizumab 3 (AIP3^VHH), soluble (VHH) VHH: DVQLQESGGGLVQPGGSLRLSCVASGRTWSIYAMGWFRQAPGKEREFVTAISISRSESVTHYAESVTGRFTISRDNAKNTLHLQMNSLKPEDTAVYFCAADRRSIDPHHTIDYWGQGTQVTVSS = 1.11 nM
anti-idiotypic nanobody for Palivizumab 2 (AIP2^VHH), soluble (VHH) VHH: DVQLQESGGGLVQAGGSLRLSCAASESLFRLNAMGWYRQAPGKQRELVAGITTSGDAVYADSVKGRFTISRDSAKNTVYLQTNNLKPEDTAVYYCNVRPRAGTWENARIGVWGQGTQVTVSS = 2.16 nM

Then there is this binder:
Need Kd, item anti-idiotypic nanobody for Palivizumab 1 (AIP1^VHH), soluble (VHH) VHH: DVQLQESGGGLVQAGGSLRLSCVASGLTFRYDMGWFRQAPGKEREFVAQITWRGGSATYYADSVKGRFTIARDIAKNAVYLQMNSLKPEDTAVYYCAAAYGSAGYRPDEYDSWGQGTQVTVSS
0.026 nM
